# ASSAYED TARGET: NMDA receptor
# METHOD DESCRIPTION: Competitive radioligand binding at NMDA receptor ([3H] MK801), rat forebrain membranes
# CONDITION PARAMETERS: 0.2 nM [3H] MK801, reflects free base activity
compounds and their reported IC50

Consider the following illustrative entries.
# COMPOUND, RESULT
records = [
    ("CN1CC[C@]23CCCC[C@H]2[C@H]1Cc1cc2nc[nH]c2cc13", "> 10 µM"),
    ("CN1CC[C@]23CCCC[C@H]2[C@H]1Cc1ccc(-c2cnc(N)nc2)cc13", "1 to 10 µM"),
    ("COCCN1CC[C@]23CCCC[C@H]2[C@H]1Cc1ccc(O)cc13 [Compound 113, 3-hydroxy-17-(2-methoxyethyl)morphinan]", "0.1 to 1 µM"),
]

Below: the item to evaluate.
Reading of IC50 for COCCOCCOc1ccccc1Nc1ccc2c(c1)[C@@]13CCCC[C@H]1[C@@H](C2)N(C)CC3 with NMDA receptor: > 10 µM

###

# ASSAYED TARGET: NMDA receptor
# METHOD DESCRIPTION: Competitive radioligand binding at NMDA receptor ([3H] MK801), rat forebrain membranes
# CONDITION PARAMETERS: 0.2 nM [3H] MK801, reflects free base activity
METRIC NAME: IC50

# COMPOUND STRUCTURE STRING, METRIC NAME, RESULT
records = [
    ("COCCOCCOCCN1CC[C@]23CC(=O)CC[C@H]2[C@H]1Cc1ccc(O)cc13", "IC50", "> 10000 nM"),
    ("CN1CC[C@]23CCCC[C@H]2[C@H]1Cc1ccc(-c2cn[nH]c2)cc13", "IC50", "100 to 1000 nM"),
    ("CN1CC[C@]23CCCC[C@H]2[C@H]1Cc1ccc(-c2ccncc2)cc13", "IC50", "1000 to 10000 nM"),
]

Below: the item to evaluate.
Reading of IC50 for COCCO[C@@H]1CC[C@H]2[C@H]3Cc4ccc(O)cc4[C@@]2(CCN3C)C1 with NMDA receptor: 1000 to 10000 nM

###

# ASSAYED TARGET: NMDA receptor
# METHOD DESCRIPTION: Competitive radioligand binding at NMDA receptor ([3H] MK801), rat forebrain membranes
# CONDITION PARAMETERS: 0.2 nM [3H] MK801, reflects free base activity
pIC50: −log10 of the molar value.
compounds and their reported pIC50

# COMPOUND, pIC50
data = [
    ("COCCOCCOCCN1CC[C@]23CCCC[C@H]2[C@H]1Cc1ccc(OC)cc13 [Compound 13]", "< 5.00"),
]

Reading of pIC50 for COc1ccc(NC(=O)c2ccc3c(c2)[C@@]24CCCC[C@H]2[C@@H](C3)N(C)CC4)cc1 [Compound 38] with NMDA receptor: < 5.00

Reading of pIC50 for COCCOCCOCCN1CC[C@]23CC(=O)CC[C@H]2[C@H]1Cc1ccc(OC)cc13 [Compound 4] with NMDA receptor: < 5.00

Reading of pIC50 for Oc1ccc2c(c1)[C@@]13CCCC[C@H]1[C@@H](C2)N(CC1CCO1)CC3 (stereo partly shown) [Compound 91, 17-(oxetan-2-ylmethyl)morphinan-3-ol] with NMDA receptor: 5.00 to 6.00

Reading of pIC50 for COc1ccccc1Nc1ccc2c(c1)[C@@]13CCCC[C@H]1[C@@H](C2)N(C)CC3 [Compound 30] with NMDA receptor: 5.00 to 6.00

Reading of pIC50 for CN1CC[C@]23CCCC[C@H]2[C@H]1Cc1ccc(N(c2ccccn2)c2ccccn2)cc13 [Compound 57] with NMDA receptor: 5.00 to 6.00

Reading of pIC50 for COCCOCCN1CC[C@]23CCCC[C@H]2[C@H]1Cc1ccc(Nc2ccnnc2)cc13 [Compound 99] with NMDA receptor: 5.00 to 6.00

###

compounds and their reported IC50
# ASSAYED TARGET: mu opioid receptor (MOR) (Homo sapiens (Human), UniProt P35372)
# METHOD DESCRIPTION: Competitive radioligand binding at MOR ([3H] Naloxone)

Consider the following illustrative entries.
# COMPOUND, METRIC NAME, RESULT
measured = [
    ("CN1CC[C@]23CCCC[C@H]2[C@H]1Cc1ccc(NC(=O)OC(C)(C)C)cc13", "IC50", "0.1 to 1 µM"),
    ("COCCO[C@@H]1CC[C@H]2[C@H]3Cc4ccc(O)cc4[C@@]2(CCN3C)C1", "IC50", "0.0001 to 0.01 µM"),
    ("COc1ccc(NC(=O)c2ccc3c(c2)[C@@]24CCCC[C@H]2[C@@H](C3)N(C)CC4)cc1", "IC50", "0.1 to 1 µM"),
    ("COc1cccc(Nc2ccc3c(c2)[C@@]24CCCC[C@H]2[C@@H](C3)N(C)CC4)c1", "IC50", "0.0001 to 0.01 µM"),
    ("COCCOCCOCCO[C@H]1CC[C@H]2[C@H]3Cc4ccc(O)cc4[C@@]2(CCN3C)C1", "IC50", "0.01 to 0.1 µM"),
    ("CN1CC[C@]23CCCC[C@H]2[C@H]1Cc1ccc(Nc2ccncc2)cc13", "IC50", "0.1 to 1 µM"),
    ("COCCNc1ccc2c(c1)[C@@]13CCCC[C@H]1[C@@H](C2)N(C)CC3", "IC50", "0.1 to 1 µM"),
    ("COCCNC(=O)Nc1ccc2c(c1)[C@@]13CCCC[C@H]1[C@@H](C2)N(C)CC3", "IC50", "0.1 to 1 µM"),
    ("Oc1ccc2c(c1)[C@@]13CCCC[C@H]1[C@@H](C2)N(CC1COC1)CC3", "IC50", "0.01 to 0.1 µM"),
    ("CN1CC[C@]23CCCC[C@H]2[C@H]1Cc1ccc(-c2ccoc2)cc13", "IC50", "0.01 to 0.1 µM"),
]

Record COCCOCCOCCO[C@@H]1CC[C@H]2[C@H]3Cc4ccc(O)cc4[C@@]2(CCN3C)C1 . Reported IC50: 0.0001 to 0.01 µM

Record COCCOc1c(O)ccc2c1[C@@]13CCCC[C@H]1[C@@H](C2)N(C)CC3 . Reported IC50: 0.01 to 0.1 µM

Record COCCOCCN1CC[C@]23CCCC[C@H]2[C@H]1Cc1ccc(O)cc13 . Reported IC50: 0.01 to 0.1 µM

Record COCCOc1cc2c(cc1O)[C@@]13CCCCC1[C@@H](C2)N(C)CC3 (stereo partly drawn) . Reported IC50: 0.1 to 1 µM

Record COc1ccc(C(=O)Nc2ccc3c(c2)[C@@]24CCCC[C@H]2[C@@H](C3)N(C)CC4)cc1 . Reported IC50: 0.1 to 1 µM

###

# ASSAYED TARGET: hMOR (Homo sapiens (Human))
# METHOD DESCRIPTION: cAMP accumulation assay (inhibition of forskolin-stimulated cAMP) in CHO-K1 cells stably expressing hMOR
# Format: cell-based
# CONDITION PARAMETERS: hMOR-expressing CHO-K1 cells; 10 μM forskolin; 60 minute incubation; read-out: MOR cAMP IC50
molecules and their reported IC50

Consider the following illustrative entries.
# COMPOUND STRUCTURE STRING, RESULT
data = [
    ("CN1CC[C@]23CCCC[C@H]2[C@H]1Cc1cc2sc(N)nc2cc13", "10 to 100 nM"),
    ("COCCOCCOCCN1CC[C@]23CCCC[C@H]2[C@H]1Cc1ccc(O)cc13", "> 1000 nM"),
    ("COCCOCCOCCOCCOCCOCC(=O)Nc1nc2cc3c(cc2s1)C[C@@H]1[C@@H]2CCCC[C@]32CCN1C", "100 to 1000 nM"),
]

Reading of IC50 for COCCOCCN1CC[C@]23CCCC[C@H]2[C@H]1Cc1ccc(OC)cc13 with hMOR (Homo sapiens (Human)): > 1000 nM

Reading of IC50 for COCCOCCOc1ccc(Nc2ccc3c(c2)[C@@]24CCCC[C@H]2[C@@H](C3)N(C)CC4)cc1 with hMOR (Homo sapiens (Human)): 10 to 100 nM

###

# ASSAYED TARGET: NMDA receptor
# METHOD DESCRIPTION: Competitive radioligand binding at NMDA receptor ([3H] MK801), rat forebrain membranes
# CONDITION PARAMETERS: 0.2 nM [3H] MK801, reflects free base activity
METRIC NAME: IC50

Record COCCOCCOCC(=O)Nc1nc2cc3c(cc2s1)C[C@@H]1[C@@H]2CCCC[C@]32CCN1C [Compound 68] . Reported IC50: 1000 to 10000 nM

Record COCCOCCN1CC[C@]23CCCC[C@H]2[C@H]1Cc1ccc(Nc2nccs2)cc13 [Compound 105] . Reported IC50: > 10000 nM
